# ASSAY_COMMENT: Clearance in female CD-1 mouse at 5 mg/kg, iv measured for 480 mins by LC-MS/MS analysis
# Format: ADME, organism-based
# CONDITION_NOTES: in vivo

>  <COMPOUND_STRING>
C#C[C@H](O)C#Cc1ccc(CCCCCCCC)cc1

>  <clearance (mL/min/kg)>
47

$$$$

###

# ASSAY_COMMENT: Cmax in male CD-1 mouse at 5 mg/kg, po measured for 480 mins by LC-MS/MS analysis
# Type: ADME, organism-based
# Set-up: dose 5 mg/kg, time 480 min, route po
# CONDITION_NOTES: in vivo

>  <COMPOUND_STRING>
C#C[C@H](O)C#Cc1ccc(CCCCCCCC)cc1

>  <Cmax>
260 nM

$$$$

###

# ASSAY_COMMENT: Cytotoxicity against human U-1810 cells assessed as inhibition of cell growth incubated for 72 hrs by MTT assay
# Type: functional, cell-based
# CONDITION_NOTES: U-1810, 72 h
pIC50: −log10 of the molar value.

>  <COMPOUND>
C#CC(O)c1cccc(CCCCCCCCCCCCCC)c1 (stereo unspecified)

>  <pIC50>
3.82

$$$$

###

# ASSAY_COMMENT: Half life in female CD-1 mouse at 5 mg/kg, ip measured for 480 mins by LC-MS/MS analysis
# Type: ADME, organism-based
# CONDITION_NOTES: in vivo

>  <COMPOUND_STRING>
C#C[C@H](O)C#Cc1ccc(CCCCCCCC)cc1

>  <half-life>
58 min

$$$$

###

# ASSAY_COMMENT: AUC in male CD-1 mouse at 5 mg/kg, iv measured for 480 mins by LC-MS/MS analysis
# Format: ADME, organism-based
# Set-up: time 480 min, dose 5 mg/kg, route iv
# CONDITION_NOTES: in vivo

>  <COMPOUND_STRING>
C#C[C@H](O)C#Cc1ccc(CCCCCCCC)cc1

>  <AUC at 8 h, ng·h/mL>
772

$$$$

###

# ASSAY_COMMENT: Clearance in male CD-1 mouse at 5 mg/kg, po measured for 480 mins by LC-MS/MS analysis
# Format: ADME, organism-based
# CONDITION_NOTES: in vivo
PROPERTY: CL/F (mL/min/kg)

>  <COMPOUND_STRING>
C#C[C@H](O)C#Cc1ccc(CCCCCCCC)cc1

>  <MEASURED_RESULT>
1760

$$$$

###

# ASSAY_COMMENT: Cmax in female CD-1 mouse at 5 mg/kg, ip measured for 480 mins by LC-MS/MS analysis
# Assay type: ADME, organism-based
# Design: dose 5 mg/kg, time 480 min, route ip
# CONDITION_NOTES: in vivo
PROPERTY: Cmax (nM)

>  <COMPOUND_STRING>
C#C[C@H](O)C#Cc1ccc(CCCCCCCC)cc1

>  <MEASURED_RESULT>
1200

$$$$

###

# ASSAY_COMMENT: AUC in female CD-1 mouse at 5 mg/kg, po measured for 480 mins by LC-MS/MS analysis
# Assay type: ADME, organism-based
# Parameters: dose 5 mg/kg, time 480 min, route po
# CONDITION_NOTES: in vivo

>  <COMPOUND_STRING>
C#C[C@H](O)C#Cc1ccc(CCCCCCCC)cc1

>  <QUANTITY_UNIT>
ng·h/mL

>  <AUC at 8 h>
57.2

$$$$

The values you see were collected from ChEMBL document CHEMBL5370613.
